Hello, the source for this data is patent US20260132208A1, in case you need it.

Examples of binders with documented % of labelled cells follow.
- target of assay: T1, human CCR8 (human, UniProt P51685 1-355)
- T1 construct: also called hCCR8; CC chemokine receptor 8
- test: flow cytometry, HUT78 cells (endogenous CCR8)
- Experimental: In human activated T cells model, prior to mAb incubation, cells were first incubated with 200 nM of hCCL1 (R&D Systems, Minneapolis, MN, USA) or buffer PBS (Invitrogen by Thermofisher Scientific, Illkirch-Graffenstaden, France) supplemented by 2% Fetal Bovine Serum (Invitrogen by Thermofisher Scientific, Illkirch-Graffenstaden, France) and 2 mM EDTA (Invitrogen by Thermofisher Scientific, Illkirch-Graffenstaden, France) during 1 hour at 4° C. […]
Report the value in % with no unit label.

Example entries and their recorded answers appear below.
>  <binder>
anti-CCR8 mAb 1-24 (antibody, human IgG1, kappa, V domains shown, Humanized mAb, human IgG1 / kappa) VH: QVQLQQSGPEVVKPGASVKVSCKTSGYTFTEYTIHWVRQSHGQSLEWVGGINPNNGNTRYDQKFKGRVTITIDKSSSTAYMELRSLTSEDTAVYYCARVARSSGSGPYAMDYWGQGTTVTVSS VL: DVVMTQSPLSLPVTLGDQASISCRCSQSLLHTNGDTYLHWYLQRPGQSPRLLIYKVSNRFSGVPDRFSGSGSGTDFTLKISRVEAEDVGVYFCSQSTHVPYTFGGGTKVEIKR

>  <reading unit>
%

>  <% of labelled cells>
88

$$$$
>  <binder>
anti-CCR8 mAb 1-22 (antibody, human IgG1, kappa, V domains shown, Humanized mAb, human IgG1 / kappa) VH: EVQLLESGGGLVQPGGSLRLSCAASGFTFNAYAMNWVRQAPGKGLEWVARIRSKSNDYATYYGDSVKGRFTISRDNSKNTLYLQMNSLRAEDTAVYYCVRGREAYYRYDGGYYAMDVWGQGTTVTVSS VL: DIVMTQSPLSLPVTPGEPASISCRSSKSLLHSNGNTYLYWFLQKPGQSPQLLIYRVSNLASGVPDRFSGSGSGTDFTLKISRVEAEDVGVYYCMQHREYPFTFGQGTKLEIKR

>  <reading unit>
%

>  <% of labelled cells>
97

$$$$
>  <binder>
anti-CCR8 mAb 1-23 (antibody, human IgG1, kappa, V domains shown, Humanized mAb, human IgG1 / kappa) VH: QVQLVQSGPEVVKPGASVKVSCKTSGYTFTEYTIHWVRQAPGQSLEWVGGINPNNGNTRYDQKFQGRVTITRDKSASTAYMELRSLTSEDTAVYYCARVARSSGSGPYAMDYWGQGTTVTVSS VL: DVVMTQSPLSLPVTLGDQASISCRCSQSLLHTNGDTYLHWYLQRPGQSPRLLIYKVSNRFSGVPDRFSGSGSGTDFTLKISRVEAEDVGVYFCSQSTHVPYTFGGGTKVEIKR

>  <reading unit>
%

>  <% of labelled cells>
96

$$$$

# ---- query binder ----
Exercise: Look up % of labelled cells for this binder: anti-CCR8 mAb 1-25 (antibody, human IgG1, kappa, V domains shown, Humanized mAb, human IgG1 / kappa) VH: QVQLVESGGGVVQPGRSLRLSCAASGFTFSNYRMHWVRQAPGKGLEWIAVIKVKSDNYGANYADSVKGRFTISRDNSKNTLYLQMNSLRAEDTAVYYCSSPTYPGSSGFAYWGQGTLVTVSS VL: DIQMTQSPSSLSASVGDRVTITCRASQDISNYLNWYQQKPDGTVKLLIYYTSRLHTGVPSRFSGSGSGTDYTLTISNLQQEDIATYFCQQGNKFPPTFGGGTKVEINR
Key: 93
